Where do these numbers come from? They come from BindingDB's records for doi:10.1111/j.1747-0285.2011.01215.x.

# target.system: Sigma non-opioid intracellular receptor 1 (Cavia porcellus)
# Sequence (Q60492 whole entry): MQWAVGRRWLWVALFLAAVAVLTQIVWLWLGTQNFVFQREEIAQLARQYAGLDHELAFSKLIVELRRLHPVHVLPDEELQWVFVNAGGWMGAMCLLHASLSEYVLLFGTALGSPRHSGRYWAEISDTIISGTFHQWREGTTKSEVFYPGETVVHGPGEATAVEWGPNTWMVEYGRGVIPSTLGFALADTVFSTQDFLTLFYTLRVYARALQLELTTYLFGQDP
# method.summary: Sigma 1 Assay
# condition.notes: pH 7.4; 37 °C
Each record here notes measured log10(Ki).
endpoint.label: log10(Ki) (log10 of the value in nM)

>>> endpoint_result("Fc1ccccc1N1CCN(CCCn2ccc3ccccc32)CC1")
2.42
>>> endpoint_result("c1ccc(N2CCN(CCCn3ccc4ccccc43)CC2)cc1")
3.17
>>> endpoint_result("Cc1cn(CN2CCN(c3ccc(F)cc3)CC2)c2ccccc12")
3.00
>>> endpoint_result("Fc1ccc(F)c(CN2CCN(Cc3c[nH]c4ccccc34)CC2)c1")
2.33
>>> endpoint_result("Cc1cn(CN2CCN(CCc3ccccc3)CC2)c2ccccc12")
1.15
>>> endpoint_result("Clc1ccc(CN2CCN(Cc3c[nH]c4ccccc34)CC2)cc1Cl")
2.10
>>> endpoint_result("Fc1ccc(N2CCN(Cc3c[nH]c4ccccc34)CC2)cc1")
3.56
>>> endpoint_result("Fc1ccc(N2CCN(Cc3cn(CN4CCN(c5ccc(F)cc5)CC4)c4ccccc34)CC2)cc1")
3.43
>>> endpoint_result("Fc1ccc(N2CCN(CCCn3ccc4ccccc43)CC2)cc1")
2.66
